Test system: HCV replicon (Genotype 1b)
Assay: Luciferase genotype 1b replicon potency assay
Type: cell-based
Conditions: Hepatitis C virus, Huh-7; luciferase-reporter genotype 1b subgenomic replicon cell line (Huh7); Renilla luciferase reporter activity
Protocol: Further to the above Examples, representative compounds, prepared according to the examples were tested for potency in an HCV replicon assay (Genotype 1b) for activity against the virus (EC50) and toxicity to the cells (CC50). […] Replicon cells were seeded into white 96-well plates (Nunc/VWR) at a density of 2×10^4 cells/well in medium without G-418. […] The values were determined by non-linear regression (four-parameter sigmoidal curve fitting) analysis.
measurement.type: IC50 (nM)
Please state the figure in nM; there is no need to write the unit.

Reported IC50 of COc1nc(N)nc2c1nc(I)n2[C@@H]1O[C@H](COP(=O)(N[C@@H](C)C(=O)OCc2ccccc2)N[C@@H](C)C(=O)OCc2ccccc2)[C@@H](O)[C@@]1(C)O : 46

Reported IC50 of COc1nc(N)nc2c1nc(I)n2[C@@H]1O[C@H](COP(=O)(N[C@@H](C)C(=O)OC2CCCC2)Oc2cccc3ccccc23)[C@@H](O)[C@@]1(C)O (stereo partly drawn) : 12

Reported IC50 of CCCCOC(=O)[C@H](C)NP(=O)(OC[C@H]1O[C@@H](n2c(I)nc3c(OC)nc(N)nc32)[C@](C)(O)[C@@H]1O)Oc1cccc2ccccc12 (stereo partly drawn) : 11

Reported IC50 of COc1nc(N)nc2c1nc(I)n2[C@@H]1O[C@H](COP(=O)(N[C@@H](C)C(=O)OCC(C)(C)C)Oc2cccc3ccccc23)[C@@H](O)[C@@]1(C)O (stereo partly drawn) : 20

Reported IC50 of COc1nc(N)nc2c1nc(Cl)n2[C@@H]1O[C@H](COP(=O)(N[C@@H](C)C(=O)OCC(C)(C)C)N[C@@H](C)C(=O)OCC(C)(C)C)[C@@H](O)[C@@]1(C)O : 10000

Reported IC50 of COc1nc(N)nc2c1nc(I)n2[C@@H]1O[C@H](COP(=O)(N[C@@H](C)C(=O)OC2CCC2)Oc2cccc3ccccc23)[C@@H](O)[C@@]1(C)O (stereo partly drawn) : 10

Reported IC50 of COc1nc(N)nc2c1nc(I)n2[C@@H]1O[C@H](COP(=O)(N[C@@H](C)C(=O)OC2CCOCC2)Oc2cccc3ccccc23)[C@@H](O)[C@@]1(C)O (stereo partly drawn) : 18

Reported IC50 of COc1nc(N)nc2c1nc(I)n2[C@@H]1O[C@H](CO)[C@@H](O)[C@@]1(C)O : 6100

Reported IC50 of CCCCCOC(=O)[C@H](C)NP(=O)(OC[C@H]1O[C@@H](n2c(I)nc3c(OC)nc(N)nc32)[C@](C)(O)[C@@H]1O)Oc1cccc2ccccc12 (stereo partly drawn) : 12

Reported IC50 of COc1nc(N)nc2c1nc(I)n2[C@@H]1O[C@H](COP(=O)(N[C@@H](C)C(=O)OCC(C)(C)C)N[C@@H](C)C(=O)OCC(C)(C)C)[C@@H](O)[C@@]1(C)O : 110
